src = patent US9321756B2

# TGT: full length recombinant Pim-3 (Homo sapiens (Human), UniProt Q86V86)
# EXPERIMENT SUMMARY: Pim enzyme assay (HTRF, phosphorylation of biotinylated-BAD (S112) peptide), Pim-3
# Format: biochemical
# SETUP CONDITIONS: Pim-3 enzyme assay; read-out: Pim3 IC50
pIC50: −log10 of the molar value.
Given measured pIC50, output 1.0 if it is greater than or equal to 8 and 0.0 if not.

Answered cases to consult:
                                   compound  assigned_class
0  Nc1nnc(-c2ccc3[nH]cc(-c4cncc(NC5CCCC5)n4)c3c2)o1 [Example 4]             1.0
1  CNc1nnc(-c2ccc3[nH]cc(-c4cccc(-n5ccnc5C)n4)c3c2)s1 [Example 234]             0.0

Prompt line: Check if pIC50 >= 8 (inclusive). Item: Nc1nnc(-c2ccc3[nH]cc(-c4cccc(N5CCCC5=O)n4)c3c2)s1 [Example 166]
Response line: 1.0

Prompt line: // inclusive: pIC50 at least 8? input: Nc1nnc(-c2ccc3[nH]cc(-c4cncc(-c5cccc(F)c5)n4)c3c2)o1 [Example 119]
Response line: 1.0

Prompt line: Record Cn1cc(-c2cncc(-c3c[nH]c4ccc(-c5nnc(N)o5)cc34)n2)cn1 [Example 121] ; criterion: pIC50 no lower than 8. Met?
Response line: 1.0

###

# TGT: full length recombinant Pim-2 (Homo sapiens (Human), UniProt Q9P1W9)
# Sequence (Q9P1W9 whole entry): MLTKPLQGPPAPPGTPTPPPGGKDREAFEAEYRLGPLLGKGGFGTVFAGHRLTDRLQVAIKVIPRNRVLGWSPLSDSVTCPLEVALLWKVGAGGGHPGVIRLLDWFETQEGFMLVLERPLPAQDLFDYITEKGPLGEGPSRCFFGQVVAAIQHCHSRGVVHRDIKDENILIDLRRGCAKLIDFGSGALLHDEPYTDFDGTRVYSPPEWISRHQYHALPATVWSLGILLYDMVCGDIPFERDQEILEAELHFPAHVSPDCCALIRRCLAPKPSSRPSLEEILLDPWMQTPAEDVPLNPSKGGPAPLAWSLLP
# EXPERIMENT SUMMARY: Pim enzyme assay (HTRF, phosphorylation of biotinylated-BAD (S112) peptide), Pim-2
# Assay type: biochemical
# SETUP CONDITIONS: Pim-2 enzyme assay; read-out: Pim2_IC50
pIC50: −log10 of the molar value.
Hi all, reminder that labels come from pIC50, split as range A = under 7, range B = from 7 up to 8, range C = 8 and over

                                   molecule  assigned_class
0  CNc1nnc(-c2ccc3[nH]cc(-c4ccc5c(c4)OC(C)(C)C5)c3c2)s1         range A
1  Fc1ccccc1-c1c[nH]c2ccc(-c3nnc(NCc4ccc5[nH]ccc5c4)s3)cc12         range A
2  Nc1nnc(-c2ccc3[nH]cc(-c4cccc(N5CCCCC5=O)n4)c3c2)s1         range A

Prompt line: State the band of Nc1nnc(-c2ccc3[nH]cc(-c4cncc(-c5ccccc5Cl)n4)c3c2)o1
Response line: range B

Prompt line: Assign a bin to Nc1nnc(-c2ccc3[nH]cc(-c4ccccc4F)c3c2)s1
Response line: range B

Prompt line: Please let me know in which category the item Cn1cc(-c2cncc(-c3c[nH]c4ccc(-c5nnc(N)o5)cc34)n2)cn1 belongs.
Response line: range B

Prompt line: GET /class?item= Nc1nnc(-c2ccc3[nH]cc(-c4nccc(-c5ccccc5)n4)c3c2)o1
Response line: range C

###

# TGT: full length recombinant Pim-1 (Homo sapiens (Human), UniProt P11309)
# Sequence (P11309 whole entry): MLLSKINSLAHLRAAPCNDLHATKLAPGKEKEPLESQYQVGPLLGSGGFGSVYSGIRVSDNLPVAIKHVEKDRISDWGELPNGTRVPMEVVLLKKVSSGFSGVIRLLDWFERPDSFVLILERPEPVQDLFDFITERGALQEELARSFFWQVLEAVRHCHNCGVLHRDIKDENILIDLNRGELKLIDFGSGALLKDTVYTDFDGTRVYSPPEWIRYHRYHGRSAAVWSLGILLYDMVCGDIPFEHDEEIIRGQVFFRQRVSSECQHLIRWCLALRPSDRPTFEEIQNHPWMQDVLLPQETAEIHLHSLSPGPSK
# EXPERIMENT SUMMARY: Pim enzyme assay (HTRF, phosphorylation of biotinylated-BAD (S112) peptide), Pim-1
# Type: biochemical
# SETUP CONDITIONS: Pim-1 enzyme assay; read-out: Pim_1_IC50
# maps each entry to its IC50

Study these solved cases before continuing.
>>> df
                                   compound  property_name  experimental_value
0  CC1CCCCN1c1cncc(-c2c[nH]c3ccc(-c4nnc(N)o4)cc23)n1 (centres unmarked)           IC50            0.714 nM
1  Nc1nnc(-c2ccc3[nH]cc(-c4nccc(-c5ccccc5F)n4)c3c2)o1           IC50             10.6 nM
2  CNc1nnc(-c2ccc3[nH]cc(-c4cccc(-c5ccccc5)c4)c3c2)s1           IC50             2800 nM
3  CC(C)Nc1cncc(-c2c[nH]c3ccc(-c4nsc(N)n4)cc23)n1           IC50             20.1 nM
4    Nc1nnc(-c2ccc3[nH]cc(-c4ncccn4)c3c2)o1           IC50              269 nM

Prompt line: Requested field: IC50. Item: CC(=O)Nc1nc(-c2ccc3[nH]cc(-c4cncc(OC(C)C)n4)c3c2)no1
Response line: 186 nM
